Test system: DAN-G
ASSAY_DETAILS: Cytotoxicity against human DAN-G cells assessed as growth inhibition after 96 hrs by crystal violet staining assay
Format: functional, cell-based
Listed here: items and their measured IC50.
// note: answer is a bare numeric in µM

Consider the reported IC50 for these compounds:
Task: Output reported IC50 of the compound O=C(N[C@H]1C[C@H](Oc2ccc(-c3ccccc3)cc2)C[C@@H]1O)C(c1ccccc1)c1ccccc1 (racemic) on DAN-G.
Output: 17.5

Task: # assay system DAN-G: give IC50 of O=C(N[C@@H]1C[C@H](Oc2ccc(-c3ccccc3)cc2)C[C@H]1O)C(c1ccccc1)c1ccccc1 (racemic)
Output: 13

Task: Please look at O=C(O)CCCc1ccc(N(CCCl)CCCl)cc1 [CHLORAMBUCIL] and tell me its recorded IC50 on DAN-G.
Output: 27.8

Others:
Task: Give reported IC50 for O=C(CCCc1c[nH]c2ccccc12)N[C@@H]1C[C@H](Oc2ccc(-c3ccccc3)cc2)C[C@H]1O (racemic) (DAN-G)
Output: 12.8
